Protocol details: Cytotoxicity against HEK293T cells assessed as reduction in cell viability after 48 hrs by CellTiter 96 aqueous one solution assay
Format: cell-based, HEK-293T
Test conditions: human
Some molecules, each annotated with its measured CC50 at 48 h.

{"Molecule": "CCn1c(=O)[nH]c2cccc(Oc3cc(Cl)cc(C#N)c3)c21", "CC50 at 48 h": "24.1 µM"}
{"Molecule": "Cc1ccnc2c1NC(=O)c1cccnc1N2C1CC1", "CC50 at 48 h": "92.7 µM"}
{"Molecule": "CCn1c(=O)[nH]c2cccc(Oc3cc(C#N)cc(C#N)c3)c21", "CC50 at 48 h": "96.6 µM"}
{"Molecule": "CCn1c(=O)[nH]c2cccc(Oc3cc(C#N)cc(/C=C/C#N)c3)c21", "CC50 at 48 h": "9.7 µM"}
{"Molecule": "Cn1c(=O)[nH]c2cccc(Oc3cc(Cl)cc(C#N)c3)c21", "CC50 at 48 h": "53.4 µM"}
{"Molecule": "CCn1c(=O)[nH]c2cccc(Oc3cccc4ccccc34)c21", "CC50 at 48 h": "31.3 µM"}
{"Molecule": "CCn1c(=O)[nH]c2cccc(Oc3cc(C)cc(C)c3)c21", "CC50 at 48 h": "7.16 µM"}
{"Molecule": "CCC(c1ccccc1)n1c(=O)[nH]c2ccc(Cl)cc21 (racemic)", "CC50 at 48 h": "55 µM"}
{"Molecule": "CCn1c(=O)[nH]c2cccc(Oc3ccccc3)c21", "CC50 at 48 h": "55 µM"}
{"Molecule": "CCn1c(=O)[nH]c2cccc(Oc3ccnc(C#N)c3)c21", "CC50 at 48 h": "> 100 µM"}
{"Molecule": "CCCn1c(=O)[nH]c2cccc(Oc3cc(Cl)cc(C#N)c3)c21", "CC50 at 48 h": "24.8 µM"}
{"Molecule": "CCn1c(=O)[nH]c2cccc(Oc3ccnc(Cl)c3)c21", "CC50 at 48 h": "95.1 µM"}
{"Molecule": "CC1(C)OC(=O)Nc2cccc(Oc3cc(Cl)cc(C#N)c3)c21", "CC50 at 48 h": "82.7 µM"}
{"Molecule": "CCn1c(=O)[nH]c2cccc(Oc3cc(C#N)ccn3)c21", "CC50 at 48 h": "> 100 µM"}

Value source: ChEMBL document CHEMBL4330184
